# tgt: T1, HLA-A*02:01 (human)
# T1 construct: MHC class I monomer made peptide-receptive by UV cleavage of a UV-sensitive ligand; also called peptide-receptive MHC molecules
# assay details: UV-ligand exchange ELISA (anti-β2m), peptide exchange yield grade
outcome measure: peptide exchange yield

Enquiry: Tell me peptide exchange yield reported for GLASKENFSNVSL [peptide GLASKENFSNVSL (SEQ ID NO: 26)]
Return: 20 to 50%
